Tested on: modified luciferase expression
assay.notes: Expression of Luc in different organs (liver, lung, spleen, femur) 6 hours after intravenous administration
Assay type: in vivo
assay.conditions: Table 17-3, mice, i.v., 0.5 mpk, spleen
# label = 1 if Total Flux Spleen >= 80000 else 0

Task item: Is Total Flux Spleen at least 80000? Consider CCCCCCCCCCCCN(CCCCO)CCCCCCCCCCCC
Reply: 1

Task item: Is Total Flux Spleen at least 80000? Consider CCCCCCCCCCCCCCN(CCO)CCCCCCCCCCCCCC
Reply: 0

Task item: Is Total Flux Spleen at least 80000? Consider CCCCCCCCCCCCN(CCO)CCCCCCCCCCCC
Reply: 1

Task item: Is Total Flux Spleen at least 80000? Consider CCCCC/C=C\C/C=C\CCCCCCCCN(CCO)CCCCCCCCCCCCCCCCCC
Reply: 1

Task item: Is Total Flux Spleen at least 80000? Consider CCCCCC=CCC=CCCCCCCCCC(CCCCCCCCC=CCC=CCCCCC)OC(=O)CCCN(C)C (stereo not shown) [MC3, reference compound]
Reply: 1

Task item: Is Total Flux Spleen at least 80000? Consider CCCCCCCCCN(CCO)CCCCCCCCC
Reply: 0

* * *

Please go through the items and note down their IL-6.
Tested on: IL-6
assay.notes: Cytokine production induced by sample formulations: IL-6
Type: in vivo
assay.conditions: Table 4; mice, i.v., 0.5 mpk, 6 hours; in pg/mL (unit assumed)
When you answer, write just the number.

Task item: Annotate the molecule CCCCC/C=C\C/C=C\CCCCCCCCN(CCCCCCCC/C=C\C/C=C\CCCCC)CCN(CCCCCCCC/C=C\C/C=C\CCCCC)CCN1CCNCC1 with its measured IL-6.
Reply: 116

Task item: Annotate the molecule CCCCCCCCCCCCN(CCCCCCCCCCCC)CCN(CCCCCCCCCCCC)CCN1CCN(CCN(CCCCCC(=O)OCCCCC)CCCCCC(=O)OCCCCC)CC1 with its measured IL-6.
Reply: 17

Task item: Annotate the molecule CCCCCCCC/C=C\CCCCCCCCN(CCCCCCCC/C=C\CCCCCCCC)CCN(CCCCCCCC/C=C\CCCCCCCC)CCN1CCN(CCN(CCCCCCCCCCCC)CCCCCCCCCCCC)CC1 with its measured IL-6.
Reply: 37

Task item: Annotate the molecule CCCCCCCCCCCCN(CCCCCCCCCCCC)CCN(CCCCCCCCCCCC)CCN1CCN(CCN(CCCCCCCCC)CCCCCCCCC)CC1 with its measured IL-6.
Reply: 259

Task item: Annotate the molecule CCCCCCCCCCCCCCN(CCCCCCCCCCCCCC)CCN(CCCCCCCCCCCCCC)CCN1CCN(CCN(CCCCCCCCCCCCCC)CCCCCCCCCCCCCC)CC1 with its measured IL-6.
Reply: 174

Task item: Annotate the molecule CCCCCCCCCN(CCCCCCCCC)CCN(CCCCCCCCC)CCN1CCN(CCN(CCCCCCCCC)CCCCCCCCC)CC1 with its measured IL-6.
Reply: 263

* * *

Please go through the items and note down their PDI.
assay.notes: Particle size and polydispersity index of nanoparticle compositions (Zetasizer Nano ZS)
Assay type: physicochemical
assay.conditions: Table 1; rows without footnote mark
When you answer, write just the number.

Task item: Annotate the compound CCCCCCCCCCCCN(CCCCCCCCCCCC)CCN1CCN(CCN(CCCCCCCCC)CCN(CCCCCCCCC)CCCCCCCCC)CC1 [Compound 19] with its measured PDI.
Reply: 0.100

Task item: Annotate the compound CCCCCCCCCN(CCCCCCCCC)CCN(CCCCCCCCC)CC(=O)N1CCN(C(=O)CN(CCCCCCCCC)CCCCCCCCC)CC1 [Compound 4] with its measured PDI.
Reply: 0.120

Task item: Annotate the compound CCCCC/C=C\C/C=C\CCCCCCCCN(CCCCCCCC/C=C\C/C=C\CCCCC)CCN1CCN(CCN(CCCCCCCCCCCC)CCN(CCCCCCCCCCCC)CCCCCCCCCCCC)CC1 [Compound 29] with its measured PDI.
Reply: 0.060

Task item: Annotate the compound CCCCCCCCCCCCN(CCCCCCCCCCCC)CCN(CCCCCCCCCCCC)CCN1CCN(CCN(CCCCCC)CCCCCC)CC1 [Compound 21] with its measured PDI.
Reply: 0.239

Task item: Annotate the compound CCCCCCCC/C=C\CCCCCCCCN(CCCCCCCC/C=C\CCCCCCCC)CCN(CCCCCCCC/C=C\CCCCCCCC)CCN1CCN(CCN(CCCCCCCCCCCC)CCCCCCCCCCCC)CC1 [Compound 33] with its measured PDI.
Reply: 0.138

Task item: Annotate the compound CCCCCCCCCCCCN(CCCCCCCCCCCC)CCN1CCN(CCN(CCCCCC)CCN(CCCCCC)CCCCCC)CC1 [Compound 17] with its measured PDI.
Reply: 0.180

* * *

assay.notes: Particle size and polydispersity index of nanoparticle compositions (Zetasizer Nano ZS)
Type: physicochemical
assay.conditions: comparison amongst compositions
measured.property: particle size, rank within the named table (in words)

query.smiles | observed
CCCCCCCCCN(CCCCCCCCC)CCN(CCCCCCCCC)CCC1CCN(C(=O)CN(CCCCCCCCC)CCCCCCCCC)CC1 | smallest particles
CCCCCCCCCCCCN(CCCCCCCCCCCC)CCN(CCO)CCCCCC | smallest particles
CCCCC/C=C\C/C=C\CCCCCCCCN(CCCCCCCC/C=C\C/C=C\CCCCC)CCN1CCN(CCCCCCCCCCCC)CC1 | largest particles
CCCCCCCCCCCCCCN(CCO)CCCCCCCCCCCCCC | smallest particles
CCCCC/C=C\C/C=C\CCCCCCCCC1(CCCCCCCC/C=C\C/C=C\CCCCC)CC(OC(=O)CCCN(C)C)C1 | smallest particles

Task item: Annotate the molecule CCCCC/C=C\C/C=C\CCCCCCCCN(CCO)CCCCCC with its measured particle size, rank within the named table (in words).
Reply: largest particles

Task item: Annotate the molecule CCCCC/C=C\C/C=C\CCCCCCCCN(CCCCCCCC/C=C\C/C=C\CCCCC)CCN(CCCCCCCC/C=C\C/C=C\CCCCC)CCN1CCN(CCN(CCCCCCCCCCCC)CCCCCCCCCCCC)CC1 with its measured particle size, rank within the named table (in words).
Reply: smallest particles

* * *

Please go through the items and note down their response vs control in vivo at 0.5 mg/kg.
System: LDL-c
assay.notes: LDL levels in LDLr−/− mice after mRNA encoding the LDL receptor
Type: in vivo, LDLR knockout mice
assay.conditions: Mus musculus; Table 7b; LDLr−/− mice, 0.5 mpk, LDLr; read-out: LDL levels lipid/untreated LDLr−/− mice 0.5 mpk, LDLr
Your answer is read as %, so omit the unit and give the number.

Task item: Annotate the compound CCCCCCCCCCCCN(CCCCCCCCCCCC)CCN(CCCCCCCCCCCC)CCN1CCN(CCN(CCCCCCCCCCCC)CCCCCCCCCCCC)CC1 [KL22, reference compound] with its measured response vs control in vivo at 0.5 mg/kg.
Reply: 51

Task item: Annotate the compound CCCCCCCCCCCCN(CCCCCCCCCCCC)CCN(CCCCCCCCCCCC)CC(=O)N1CCN(C(=O)CN(CCCCCCCCC)CCCCCCCCC)CC1 [Compound 7] with its measured response vs control in vivo at 0.5 mg/kg.
Reply: 63

Task item: Annotate the compound CCCCCCCCCN(CCCCCCCCC)CCN(CCCCCCCCC)CC(=O)N1CCN(C(=O)CN(CCCCCCCCC)CCCCCCCCC)CC1 [Compound 4] with its measured response vs control in vivo at 0.5 mg/kg.
Reply: 54

Task item: Annotate the compound CCCCCCCCCCCCN(CCN(CCCCCCCCC)CCCCCCCCC)CC(=O)N1CCN(C(=O)CN(CCCCCCCCC)CCCCCCCCC)CC1 [Compound 5] with its measured response vs control in vivo at 0.5 mg/kg.
Reply: 47

Task item: Annotate the compound CCCCCC=CCC=CCCCCCCCCC(CCCCCCCCC=CCC=CCCCCC)OC(=O)CCCN(C)C (stereo not drawn) [MC3, reference compound] with its measured response vs control in vivo at 0.5 mg/kg.
Reply: 55

Task item: Annotate the compound CCCCCCCCCCCCN(CCCCCCCCCCCC)CCN(CCCCCCCCC)CC(=O)N1CCN(C(=O)CN(CCCCCCCCCCCC)CCCCCCCCCCCC)CC1 [Compound 10] with its measured response vs control in vivo at 0.5 mg/kg.
Reply: 98

Task item: Annotate the compound CCCCCCCCCCCCN(CCCCCCCCCCCC)CC(=O)N1CCN(C(=O)CN(CCCCCCCCCCCC)CCN(CCCCCCCCC)CCCCCCCCC)CC1 [Compound 9] with its measured response vs control in vivo at 0.5 mg/kg.
Reply: 87

Task item: Annotate the compound CCCCCCCCCCCCN(CCCCCCCCCCCC)CC(=O)N1CCN(C(=O)CN(CCCCCCCCC)CCN(CCCCCCCCC)CCCCCCCCC)CC1 [Compound 8] with its measured response vs control in vivo at 0.5 mg/kg.
Reply: 66

Task item: Annotate the compound CCCCCCCCCCCCN(CCCCCCCCCCCC)CCN(CCCCCCCCC)CC(=O)N1CCN(C(=O)CN(CCCCCCCCC)CCCCCCCCC)CC1 [Compound 6] with its measured response vs control in vivo at 0.5 mg/kg.
Reply: 91
